# tested_system: CDC25B (Homo sapiens, UniProt P30305)
# Construct: fusion proteins which only carry the PTP activity domain were expressed in Escherichia coli DH5α; GST (N); made in house; host or cells: Escherichia coli DH5α
# Sequence (P30305 431-538 limits assumed, species assumed): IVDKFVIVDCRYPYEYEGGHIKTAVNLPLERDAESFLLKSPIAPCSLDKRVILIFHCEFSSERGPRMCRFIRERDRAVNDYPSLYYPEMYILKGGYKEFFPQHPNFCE
# procedure_details: PTP assay with pNPP as substrate, CDC25B
# Format: biochemical
# assay_context: GST-ΔCDC25B PTP activity domain, 37 °C, pH 5.5
observation_type: IC50

Past entries and their recorded results:
| compound | reported_value |
| --- | --- |
| Cc1cc(O)cc(O)c1C(=O)O[C@]1(C)C(=O)C=C2C=C(/C=C/C(=O)O)OC[C@H]2[C@@H]1O | 10.8 µM |
| CC1(O)C2OC(=O)CCC(=O)NC3(Oc4ccc(C(=O)O)c(O)c4C(=O)C13)C2(C)O (single isomer, unassigned; (+)) | 18 µM |

Now take the following compound into account.
Challenge: Look up IC50 for this compound: COC(c1cc2c([nH]1)C(=O)c1cc(C(OC)C(C)C)[nH]c1C2=O)C(C)C (stereo not drawn)
Response given: 11.4 µM

====

Catalogue of pIC50 values
# tested_system: PTP1B (Homo sapiens, UniProt P18031)
# Construct: fusion proteins which only carry the PTP activity domain were expressed in Escherichia coli DH5α; GST (N)
# Sequence (P18031 3-277 limits assumed, species assumed): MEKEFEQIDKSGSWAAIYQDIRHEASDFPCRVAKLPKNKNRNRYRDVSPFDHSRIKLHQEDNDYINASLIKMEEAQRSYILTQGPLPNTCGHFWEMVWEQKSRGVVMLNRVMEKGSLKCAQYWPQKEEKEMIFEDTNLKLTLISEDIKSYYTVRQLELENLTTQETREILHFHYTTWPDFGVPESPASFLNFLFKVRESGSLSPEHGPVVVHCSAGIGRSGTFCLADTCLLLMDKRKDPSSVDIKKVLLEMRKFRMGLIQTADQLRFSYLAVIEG
# procedure_details: PTP assay with pNPP as substrate, PTP1B
# assay_context: GST-ΔPTP1B PTP activity domain, 37 °C, pH 5.5
Would you please state pIC50, meaning minus log10 of the concentration in mol/L, as a bare number?

# count of solved cases: 2
| compound | pIC50 |
| --- | --- |
| COC(c1cc2c([nH]1)C(=O)c1cc(C(OC)C(C)C)[nH]c1C2=O)C(C)C (stereo not drawn) | 4.46 |
| Cc1cc(O)cc(O)c1C(=O)O[C@]1(C)C(=O)C=C2C=C(/C=C/C(=O)O)OC[C@H]2[C@@H]1O | 4.79 |

Now let's try a different one.
Challenge: Reported pIC50 for CC1(O)C2OC(=O)CCC(=O)NC3(Oc4ccc(C(=O)O)c(O)c4C(=O)C13)C2(C)O (single isomer, unassigned; (+)) : what is it?
Response given: 4.76
